tested on: Staphylococcus aureus; assay: Antibacterial activity against Staphylococcus aureus TISTR517 after 8 to 12 hrs by colorimetric microdilution broth technique; type: functional
Readout name: MIC (µg/mL)

molecule_smiles=CCOc1ccc(/C=C/c2ccc3ccccc3[n+]2C)cc1.O=S(=O)([O-])c1ccc(Br)cc1 uom=µg/mL numeric_readout=300
molecule_smiles=CN[C@H](CC(C)C)C(=O)N[C@H]1C(=O)N[C@@H](CC(N)=O)C(=O)N[C@H]2C(=O)N[C@H]3C(=O)N[C@H](C(=O)N[C@H](C(=O)O)c4cc(O)cc(O)c4-c4cc3ccc4O)[C@H](O)c3ccc(c(Cl)c3)Oc3cc2cc(c3O[C@@H]2O[C@H](CO)[C@@H](O)[C@H](O)[C@H]2O[C@H]2C[C@](C)(N)[C@H](O)[C@H](C)O2)Oc2ccc(cc2Cl)[C@H]1O uom=µg/mL numeric_readout=9.37
molecule_smiles=CN(C)c1ccc(/C=C/c2ccc3ccccc3[n+]2C)cc1.Cc1ccc(S(=O)(=O)[O-])cc1 uom=µg/mL numeric_readout=2.34

Values compiled from ChEMBL document CHEMBL1240464.
